Tested on: OCI-Ly10 cells
Assay: Pairwise 10 × 10 matrix combination with venetoclax, Cell Titer Glo viability
Conditions: ΔBlissSum
propertyMeasured: synergistic cell killing when combined with venetoclax

compound	val
CC#CC(=O)N1CCC[C@H]1c1nc(-c2ccc(C(=O)Nc3ccccn3)cc2)c2c(N)nccn12 [Acalabrutinib]	more focal in nature
C=CC(=O)Nc1cccc(Oc2nc(Nc3ccc(N4CCN(C)CC4)cc3)nc3ccoc23)c1 [Poseltinib]	more focal in nature
